Target: C. elegans SER-7 (Caenorhabditis elegans, UniProt Q22895)
Sequence (Q22895 1-435): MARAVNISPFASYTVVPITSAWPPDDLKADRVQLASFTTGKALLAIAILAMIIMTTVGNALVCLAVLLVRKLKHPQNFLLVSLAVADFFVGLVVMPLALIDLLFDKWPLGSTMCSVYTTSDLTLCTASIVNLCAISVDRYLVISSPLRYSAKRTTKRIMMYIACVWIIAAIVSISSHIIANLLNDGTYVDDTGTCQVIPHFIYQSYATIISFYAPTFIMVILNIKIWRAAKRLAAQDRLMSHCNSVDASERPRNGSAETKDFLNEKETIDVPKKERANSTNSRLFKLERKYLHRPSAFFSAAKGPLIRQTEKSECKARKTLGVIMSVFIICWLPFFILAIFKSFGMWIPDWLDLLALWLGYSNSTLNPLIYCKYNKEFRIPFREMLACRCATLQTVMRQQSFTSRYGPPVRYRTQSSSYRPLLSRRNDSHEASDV
Experiment: Cut head pharyngeal pumping assay
Details: EC50, activation of pharyngeal pumping, transgenic psnb-1::Ce-ser-7a, cut head; 95% confidence 457 nM to 1.34 μM
recorded_endpoint: pEC50
Entry type: numeric. Quantity: pEC50, the -log10 of concentration in molar units.

Query: GET /values?readout=pEC50&item= NCCc1c[nH]c2ccc(O)cc12 [serotonin, 5-hydroxytryptamine]
Result: 6.11

###

Biological target: C. elegans SER-7 (Caenorhabditis elegans, UniProt Q22895)
Experiment: Cut head pharyngeal pumping assay
Details: EC50, increase in pharyngeal pumping, wild type worms, cut head; 95% confidence 164 nM to 304 nM
recorded_endpoint: EC50 (nM)
Provide only the numeric value, understood in nM.

Query: Short answer please: EC50, C. elegans SER-7 (Caenorhabditis elegans, UniProt Q22895), entry NCCc1c[nH]c2ccc(O)cc12 [serotonin, 5-hydroxytryptamine]
Result: 223
